TARGET_SYSTEM: Protein translocase subunit SecA (Escherichia coli (strain K12))
TEST_DESCRIPTION: Assay to Identify E. coli SecA ATPase Inhibitors
Format: functional
Parameters: scale not given: direction of the effect not stated beside the values
STATED_CONDITIONS: 30 µM
Entries with a potency or affinity are not part of this list.
# Percent Effect per entry

[
  {
    "COMPOUND": "Cn1c(CN2CCCC2)nnc1C1CCCN(C(=O)C2CCOCC2)C1 (stereo not drawn)",
    "TARGET_SYSTEM": "Protein translocase subunit SecA (Escherichia coli (strain K12))",
    "Percent Effect": "-3.02%"
  },
  {
    "COMPOUND": "COc1ccc(OC)c(CCNC(=O)NC(C)Cn2ccnc2)c1 (stereo not drawn)",
    "TARGET_SYSTEM": "Protein translocase subunit SecA (Escherichia coli (strain K12))",
    "Percent Effect": "-2.99%"
  },
  {
    "COMPOUND": "CN(Cc1cccc(F)c1)C(=O)CN1CCCCC1Cn1cncn1 (stereo not drawn)",
    "TARGET_SYSTEM": "Protein translocase subunit SecA (Escherichia coli (strain K12))",
    "Percent Effect": "-1.08%"
  }
]

Hey, just so you know, these numbers are from ChEMBL document CHEMBL3988442.
